# Test system: pancreatic cancer PANC-1 cells
# test.description: Cell proliferation assay (CCK-8)
# Format: cell-based
# run.parameters: Homo sapiens, PANC-1, 72 h
metric: IC50

- C[C@H]1CCC/C=C/[C@@H]2C[C@H](OC(=O)/C=C/c3cccc(Cl)c3)C[C@H]2[C@H](O)/C=C/C(=O)O1 [Compound 5a, 7-O-(3-chlorocinnamic acid)acyl BFA]: 0.1 to 1 µM
- C[C@H]1CCC/C=C/[C@@H]2C[C@H](OC(=O)/C=C/c3ccccc3Br)C[C@H]2[C@H](O)/C=C/C(=O)O1 [Compound 4a, 7-O-(2-bromocinnamic acid)acyl BFA]: 0.1 to 1 µM
- C[C@H]1CCC/C=C/[C@@H]2C[C@H](O)C[C@H]2[C@H](OC(=O)/C=C/c2cccnc2)/C=C/C(=O)O1 [Compound 16b]: < 0.1 µM
- C[C@H]1CCC/C=C/[C@@H]2C[C@H](OC(=O)/C=C/c3cnc4ccccc4c3)C[C@H]2[C@H](O)/C=C/C(=O)O1 [Compound 17a]: < 0.1 µM
- Cc1ccc(/C=C/C(=O)O[C@@H]2C[C@H]3[C@H](O)/C=C/C(=O)O[C@@H](C)CCC/C=C/[C@@H]3C2)cc1 [Compound 7a, 7-O-(4-methylcinnamic acid)acyl BFA]: 0.1 to 1 µM
- Cc1ccccc1/C=C/C(=O)O[C@@H]1C[C@@H]2[C@H](/C=C/CCC[C@H](C)OC(=O)/C=C/[C@H]2OC(=O)/C=C/c2ccccc2C)C1 [Compound 8c, 4,7-O-bis(2-methylcinnamic acid)acyl BFA]: 1 to 10 µM
- C[C@H]1CCC/C=C/[C@@H]2C[C@H](OC(=O)/C=C/c3cccc(Cl)c3)C[C@H]2[C@H](OC(=O)/C=C/c2cccc(Cl)c2)/C=C/C(=O)O1 [Compound 5c, 4,7-O-bis(3-chlorocinnamic acid)acyl BFA]: 1 to 10 µM
- C[C@H]1CCC/C=C/[C@@H]2C[C@H](OC(=O)/C=C/c3ccc4c(c3)OCO4)C[C@H]2C(OC(=O)/C=C/c2ccc3c(c2)OCO3)/C=C/C(=O)O1 (stereo partly shown) [Compound 9c]: 1 to 10 µM
- C[C@H]1CCC/C=C/[C@@H]2C[C@H](OC(=O)/C=C/c3cccnc3)C[C@H]2[C@H](O)/C=C/C(=O)O1 [Compound 16a]: < 0.1 µM
- C[C@H]1CCC/C=C/[C@@H]2C[C@H](O)C[C@H]2[C@H](OC(=O)/C=C/c2cnc3ccccc3c2)/C=C/C(=O)O1 [Compound 17b]: < 0.1 µM
- C[C@H]1CCC/C=C/[C@@H]2C[C@H](OC(=O)/C=C/c3ccccc3Br)C[C@H]2[C@H](OC(=O)/C=C/c2ccccc2Br)/C=C/C(=O)O1 [Compound 4c, 4,7-O-bis(2-bromocinnamic acid)acyl BFA]: 1 to 10 µM
- C[C@H]1CCC/C=C/[C@@H]2C[C@H](OC(=O)/C=C/c3ccccc3F)C[C@H]2[C@H](O)/C=C/C(=O)O1 [Compound 2a, 7-O-(2-fluorocinnamic acid)acyl BFA]: 0.1 to 1 µM
- C[C@H]1CCC/C=C/[C@@H]2C[C@H](OC(=O)/C=C/c3ccncc3)C[C@H]2[C@H](OC(=O)/C=C/c2ccncc2)/C=C/C(=O)O1 [Compound 14c]: 1 to 10 µM

----------
# pIC50 values compiled below
# System: human liver cancer HepG2 cells
# test.description: Cell proliferation assay (CCK-8)
# Type: cell-based
# run.parameters: HepG2, 72 h
pIC50: −log10 of the molar value.
metric: pIC50

• C[C@H]1CCC/C=C/[C@@H]2C[C@H](OC(=O)/C=C/c3ccccc3Br)C[C@H]2[C@H](OC(=O)/C=C/c2ccccc2Br)/C=C/C(=O)O1 [Compound 4c, 4,7-O-bis(2-bromocinnamic acid)acyl BFA] = 5.00 to 6.00
• C[C@H]1CCC/C=C/[C@@H]2C[C@H](O)C[C@H]2[C@H](OC(=O)/C=C/c2ccc(F)cc2)/C=C/C(=O)O1 [Compound 3b, 4-O-(4-fluorocinnamic acid)acyl BFA] = 6.00 to 7.00
• C[C@H]1CCC/C=C/[C@@H]2C[C@H](OC(=O)/C=C/c3ccccn3)C[C@H]2[C@H](OC(=O)/C=C/c2ccccn2)/C=C/C(=O)O1 [Compound 15c] = 6.00 to 7.00

----------
# Test system: pancreatic cancer PANC-1 cells
# test.description: Cell proliferation assay (CCK-8)
# Format: cell-based
# run.parameters: Homo sapiens, PANC-1, 72 h
pIC50: −log10 of the molar value.
metric: pIC50

• C[C@H]1CCC/C=C/[C@@H]2C[C@H](OC(=O)/C=C/c3ccc(N(C)C)cc3)C[C@H]2[C@H](OC(=O)/C=C/c2ccc(N(C)C)cc2)/C=C/C(=O)O1 [Compound 10c] = 5.00 to 6.00
• C[C@H]1CCC/C=C/[C@@H]2C[C@H](O)C[C@H]2[C@H](OC(=O)/C=C/c2cccc(Cl)c2)/C=C/C(=O)O1 = 6.00 to 7.00
• Cc1cccc(/C=C/C(=O)O[C@@H]2C[C@H]3[C@H](O)/C=C/C(=O)O[C@@H](C)CCC/C=C/[C@@H]3C2)c1 = 6.00 to 7.00
• Cc1cccc(/C=C/C(=O)O[C@@H]2C[C@@H]3[C@H](/C=C/CCC[C@H](C)OC(=O)/C=C/[C@H]3OC(=O)/C=C/c3cccc(C)c3)C2)c1 = 5.00 to 6.00
• C[C@H]1CCC/C=C/[C@@H]2C[C@H](OC(=O)/C=C/c3ccc(F)cc3)C[C@H]2[C@H](OC(=O)/C=C/c2ccc(F)cc2)/C=C/C(=O)O1 = 6.00 to 7.00

----------
# Test system: human breast cancer MCF7 cells
# test.description: Cell proliferation assay (CCK-8)
# Assay type: cell-based
# run.parameters: MCF7, 72 h
pIC50: −log10 of the molar value.
metric: pIC50

- Cc1ccccc1/C=C/C(=O)O[C@@H]1C[C@H]2[C@H](O)/C=C/C(=O)O[C@@H](C)CCC/C=C/[C@@H]2C1 [Compound 8a, 7-O-(2-methylcinnamic acid)acyl BFA]: 6.00 to 7.00
- C[C@H]1CCC/C=C/[C@@H]2C[C@H](OC(=O)/C=C/c3ccccc3F)C[C@H]2[C@H](O)/C=C/C(=O)O1 [Compound 2a, 7-O-(2-fluorocinnamic acid)acyl BFA]: 6.00 to 7.00
- C[C@H]1CCC/C=C/[C@@H]2C[C@H](OC(=O)/C=C/c3ccc(C(F)(F)F)cc3)C[C@H]2[C@H](O)/C=C/C(=O)O1 [Compound 13a]: 6.00 to 7.00
- C[C@H]1CCC/C=C/[C@@H]2C[C@H](OC(=O)/C=C/c3ccc4c(c3)OCO4)C[C@H]2[C@H](O)/C=C/C(=O)O1 [Compound 9a]: 6.00 to 7.00
- Cc1ccc(/C=C/C(=O)O[C@@H]2C[C@@H]3[C@H](/C=C/CCC[C@H](C)OC(=O)/C=C/[C@H]3OC(=O)/C=C/c3ccc(C)cc3)C2)cc1 [Compound 7c, 4,7-O-bis(4-methylcinnamic acid)acyl BFA]: 5.00 to 6.00
- C[C@H]1CCC/C=C/[C@@H]2C[C@H](O)C[C@H]2[C@H](OC(=O)/C=C/c2cccnc2)/C=C/C(=O)O1 [Compound 16b]: 6.00 to 7.00
- C[C@H]1CCC/C=C/[C@@H]2C[C@H](OC(=O)/C=C/c3cccc(Cl)c3)C[C@H]2[C@H](OC(=O)/C=C/c2cccc(Cl)c2)/C=C/C(=O)O1 [Compound 5c, 4,7-O-bis(3-chlorocinnamic acid)acyl BFA]: 5.00 to 6.00
- C[C@H]1CCC/C=C/[C@@H]2C[C@H](O)C[C@H]2[C@H](OC(=O)/C=C/c2cccc(Cl)c2)/C=C/C(=O)O1 [Compound 5b, 4-O-(3-chlorocinnamic acid)acyl BFA]: 6.00 to 7.00
- C[C@H]1CCC/C=C/[C@@H]2C[C@H](OC(=O)/C=C/c3ccc(F)cc3)C[C@H]2[C@H](OC(=O)/C=C/c2ccc(F)cc2)/C=C/C(=O)O1 [Compound 3c, 4,7-O-bis(4-fluorocinnamic acid)acyl BFA]: 5.00 to 6.00
- C[C@H]1CCC/C=C/[C@@H]2C[C@H](OC(=O)/C=C/c3cnc4ccccc4c3)C[C@H]2[C@H](O)/C=C/C(=O)O1 [Compound 17a]: 6.00 to 7.00
- C[C@H]1CCC/C=C/[C@@H]2C[C@H](O)C[C@H]2[C@H](OC(=O)/C=C/c2cccc(F)c2)/C=C/C(=O)O1 [Compound 1b, 4-O-(3-fluorocinnamic acid)acyl BFA]: 6.00 to 7.00

----------
# Tested on: human breast cancer MCF7 cells
# test.description: Cell proliferation assay (CCK-8)
# Type: cell-based
# run.parameters: MCF7, 72 h
metric: IC50

• C[C@H]1CCC/C=C/[C@@H]2C[C@H](O)C[C@H]2[C@H](OC(=O)/C=C/c2ccncc2)/C=C/C(=O)O1 [Compound 14b] = 0.1 to 1 µM
• C[C@H]1CCC/C=C/[C@@H]2C[C@H](O)C[C@H]2[C@H](OC(=O)/C=C/c2ccccc2Br)/C=C/C(=O)O1 = 0.1 to 1 µM
• C[C@H]1CCC/C=C/[C@@H]2C[C@H](OC(=O)/C=C/c3ccccc3F)C[C@H]2[C@H](OC(=O)/C=C/c2ccccc2F)/C=C/C(=O)O1 = 1 to 10 µM
• Cc1cccc(/C=C/C(=O)O[C@@H]2C[C@@H]3[C@H](/C=C/CCC[C@H](C)OC(=O)/C=C/[C@H]3OC(=O)/C=C/c3cccc(C)c3)C2)c1 = 1 to 10 µM
• C[C@H]1CCC/C=C/[C@@H]2C[C@H](OC(=O)/C=C/c3cccc(F)c3)C[C@H]2[C@H](OC(=O)/C=C/c2cccc(F)c2)/C=C/C(=O)O1 = 1 to 10 µM
